Reference source for all entries: patent US10524472B2

- System: soybean seeds
- TEST_METHOD_NOTES: Root & shoot growth analysis after seed soak, soy
- Type: in vivo
- MEASUREMENT_PARAMETERS: soy, seed soak 5.0 μg/ml, 12-14 days
READOUT_NAME: Root (root growth index, percentage increase over untreated control) (%*)
# number only, unit %* dropped from output

Problem: Supply Root (root growth index, percentage increase over untreated control) value. Item: ANNQDPMQALMQLLEDLV (P14a)
Result: 10.3

Problem: Supply Root (root growth index, percentage increase over untreated control) value. Item: QAGPQSANKTGNVDDANNQDPMQALMQLLEDLV (P14)
Result: 24.9

* * *

What Effectiveness Uncovered (%) (decline in TMV lesions vs UTC, local response) was measured for each of the following?
- System: tobacco mosaic virus (TMV)
- TEST_METHOD_NOTES: Induction of resistance to tobacco mosaic virus in tobacco
- Type: in vivo
- MEASUREMENT_PARAMETERS: spray 20 ug/ml, TMV 3 days post-treatment, scored 3 days after inoculation
Marks after values point to notes of the source that are not given here.

Problem: Supply Effectiveness Uncovered (%) (decline in TMV lesions vs UTC, local response) value. Item: QAGPQSANKTGNVDDANNQDPAQALEQLLEDLV (P14-22A,26E)
Result: 91* %

Problem: Supply Effectiveness Uncovered (%) (decline in TMV lesions vs UTC, local response) value. Item: QDPMQALMQLLEDLVKDLK (P14d-17D)
Result: 68* %

Problem: Supply Effectiveness Uncovered (%) (decline in TMV lesions vs UTC, local response) value. Item: QAGPQSANKTGNVDDANNQDPLQALLQLLEDLV (P14-22L,26L)
Result: 65* %

Problem: Supply Effectiveness Uncovered (%) (decline in TMV lesions vs UTC, local response) value. Item: SEEEEELEQLLEDLVKLL (P14-32)
Result: 90* %

Problem: Supply Effectiveness Uncovered (%) (decline in TMV lesions vs UTC, local response) value. Item: QDPMQALMQLDEDLVKLLK (P14d-11D)
Result: 81* %

Problem: Supply Effectiveness Uncovered (%) (decline in TMV lesions vs UTC, local response) value. Item: SEEEEELQKLLK_ILEALV (SEEEEELQKLLKILEALV; P25-9)
Result: 68%

Problem: Supply Effectiveness Uncovered (%) (decline in TMV lesions vs UTC, local response) value. Item: SEEEEELAQLLAQLL (P18-9)
Result: 65* %

Problem: Supply Effectiveness Uncovered (%) (decline in TMV lesions vs UTC, local response) value. Item: QDPAQALEQLLEDLVKSLK (p14f-17S)
Result: 94* %

Problem: Supply Effectiveness Uncovered (%) (decline in TMV lesions vs UTC, local response) value. Item: SEEEELDQLLSQLI (P4-115)
Result: 87* %

Problem: Supply Effectiveness Uncovered (%) (decline in TMV lesions vs UTC, local response) value. Item: QAGPQSANKTGNVDDANNQDPLQALEQLLEDLV (P14-22L,26E)
Result: 70* %

Problem: Supply Effectiveness Uncovered (%) (decline in TMV lesions vs UTC, local response) value. Item: SEEEEELTGVLQKLLK_ILE (SEEEEELTGVLQKLLKILE; P25-12)
Result: 77* %

Problem: Supply Effectiveness Uncovered (%) (decline in TMV lesions vs UTC, local response) value. Item: QAGPQSANKTGNVDDANNQDPEQALEQLLEDLV (P14-22E,26E)
Result: 74* %

Problem: Supply Effectiveness Uncovered (%) (decline in TMV lesions vs UTC, local response) value. Item: GGLTLTGVDQKLMKILNALVQ (P25-9D)
Result: 78* %

Problem: Supply Effectiveness Uncovered (%) (decline in TMV lesions vs UTC, local response) value. Item: SEEEEELAQLSAQLLKSLL (P18min-11S)
Result: −90%

Problem: Supply Effectiveness Uncovered (%) (decline in TMV lesions vs UTC, local response) value. Item: SEEEEEEEIAKLISALIESLL (P15-60)
Result: 55%

Problem: Supply Effectiveness Uncovered (%) (decline in TMV lesions vs UTC, local response) value. Item: PSPFTQMLMHIVGEDLQAQN (P6a-15D)
Result: 74* %

Problem: Supply Effectiveness Uncovered (%) (decline in TMV lesions vs UTC, local response) value. Item: SEEEEELTLTGVLQKLLKIL (P25-14)
Result: 52%

Problem: Supply Effectiveness Uncovered (%) (decline in TMV lesions vs UTC, local response) value. Item: SEEEEELKASLKLIARLL (P19min-10S)
Result: 81* %

Problem: Supply Effectiveness Uncovered (%) (decline in TMV lesions vs UTC, local response) value. Item: SEEEEELKALLKSIARLL (P19min-13S)
Result: 35%

Problem: Supply Effectiveness Uncovered (%) (decline in TMV lesions vs UTC, local response) value. Item: KPNDSQSNIAKLISALIMSLSQ (P15b-21S)
Result: 100* %

Problem: Supply Effectiveness Uncovered (%) (decline in TMV lesions vs UTC, local response) value. Item: SEEEEELKALSKLIARLL (P19min-11S)
Result: 71* %

Problem: Supply Effectiveness Uncovered (%) (decline in TMV lesions vs UTC, local response) value. Item: QAGPQSANKTGNVDDANNQDPAQALLQLLEDLV (P14-22A,26L)
Result: 48%

Problem: Supply Effectiveness Uncovered (%) (decline in TMV lesions vs UTC, local response) value. Item: QAGPQSANKTGNVDDANNQDPE_ALAQLLEDLV (QAGPQSANKTGNVDDANNQDPEALAQLLEDLV; P14-22E,26A)
Result: 89* %

Problem: Supply Effectiveness Uncovered (%) (decline in TMV lesions vs UTC, local response) value. Item: SEEEEELEQLLEDLV (P14-39)
Result: 72* %
